Values compiled from paper PMC5764437.

Assay: Single oral dose pharmacokinetic study in mice
Format: in vivo, mouse
Conditions: female, BALB/c, mouse, plasma, po, 25 mg/kg, single oral gavage
measurement_kind: Tmax

compound | measurement_kind | result
COc1ccc(-c2c(C(F)(F)F)oc3c(CN4CCN(C)CC4)c(O)ccc3c2=O)cc1OC [Compound 4] | Tmax | ≤ 1 h

----------
Test: Single oral dose pharmacokinetic study in mice
Assay type: in vivo, mouse
Details: female, BALB/c, mouse, plasma, po, 50 mg/kg, single oral gavage, 50 mg/kg, plasma, read-out: t½ (converted)

smiles_string | half-life
Cc1ccc(-c2nc3ccccc3s2)cc1NC(=O)c1cc([N+](=O)[O-])c(N2CCN(C)CC2)cc1Cl | 426 min
